Data provenance: PubChem BioAssay AID1159580

assay: chemical genetic growth profiling, strain panel (AID 1159580);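 note: tested at 20 µM; growth read once vehicle control cultures reached saturation at 30 °C; lower values mean less growth of the strain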; settings: S. cerevisiae deletion strains, growth OD, locus YLR262C, strain YPT6
Out of some 5,500 compounds screened, about 2,000 (36%) were called active. Another 18% or so got no clear call; they are omitted. Cut-off read from the data, not from the text of the source: active = normalized growth mostly below about 0.91 (no sharp cut-off); inconclusive = no clear call, values can overlap the other calls; inactive = mostly above about 0.92. The list shows a part of the results.
Classes used: active, inactive

{"columns": ["compound", "group"],
 "data": [
  ["O=C(N[C@@H](CO)[C@H](O)c1ccc([N+](=O)[O-])cc1)C(Cl)Cl", "inactive"],
  ["CCCN(CCC)c1c([N+](=O)[O-])cc(C(F)(F)F)cc1[N+](=O)[O-]", "inactive"],
  ["Nc1ccccc1C(=O)NCCc1ccc(Cl)cc1", "inactive"],
  ["O=[N+]([O-])c1cc(C(F)(F)F)cc([N+](=O)[O-])c1Oc1ccc(Cl)c(Cl)c1", "active"],
  ["Cc1cc(Oc2c([N+](=O)[O-])cc(C(F)(F)F)cc2[N+](=O)[O-])c2c(Cl)ccc(C)c2n1", "active"],
  ["N#CCC(=O)N(Cc1ccccc1F)C(=O)NC1CCCCC1", "inactive"],
  ["CC1=C(C(=O)O)N2C(=O)[C@@H](NC(=O)[C@@H](N)c3ccc(O)cc3)[C@H]2SC1", "inactive"],
  ["CCC[C@@H]1C[C@@H](C(=O)N[C@H]([C@H]2O[C@H](SC)[C@H](O)[C@@H](O)[C@H]2O)[C@H](C)O)N(C)C1", "inactive"],
  ["N[C@@H](C(=O)N[C@@H]1C(=O)N2C(C(=O)O)=C(Cl)CS[C@H]12)c1ccccc1", "inactive"],
  ["CC(C)(C)S(=O)(=O)c1cnc(N)nc1N", "inactive"],
  ["N#Cc1cc(I)c(C#N)c(I)c1", "inactive"],
  ["COC(=O)C[C@H]1C(C)(C)[C@H](O)[C@@H]2CC3=C4CC(O)O[C@@H](c5ccoc5)[C@]4(C)CCC3[C@@]1(C)C2=O (some centres undefined)", "inactive"],
  ["CNC(C)[C@@H]1CC[C@@H](N)[C@@H](OC2[C@@H](N)C[C@@H](N)[C@H](OC3OC[C@](C)(O)[C@H](NC)[C@H]3O)[C@H]2O)O1 (some centres undefined)", "inactive"],
  ["CN1CCC[C@H]1c1cccnc1", "inactive"],
  ["C[N+]12CCC(CC1)C(OC(=O)C(O)(c1ccccc1)c1ccccc1)C2 (centres undefined)", "inactive"],
  ["CCCCN(CC)c1c([N+](=O)[O-])cc(C(F)(F)F)cc1[N+](=O)[O-]", "inactive"],
  ["O=C(O)CCC(=O)OC[C@@H](NC(=O)C(Cl)Cl)[C@H](O)c1ccc([N+](=O)[O-])cc1", "inactive"],
  ["O=[N+]([O-])c1cc(C(F)(F)F)ccc1Oc1cc(C(F)(F)F)cc(C(F)(F)F)c1", "inactive"],
  ["C/C(=C\\CO)CC[C@H](C)CCC[C@H](C)CCCC(C)C", "inactive"]
]}
